B1: tRNA (parent)
chain: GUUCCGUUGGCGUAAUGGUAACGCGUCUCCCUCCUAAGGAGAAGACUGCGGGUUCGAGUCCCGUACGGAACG

Variants of: B1
Assay: yeast fitness relative to wild type (ratio to wild type); higher = fitter; tRNA-Arg(CCU), competitive growth, 37 C, YPD
Variants at the floor of the assay were thinned out.
attribute.measured: yeast fitness

                               sequence_data  observed_result
 0  GUUCCGUUGGCGUAAUUGUAACGCGUCUCCCUCCUAUGGAGAAGACUGCGGGUUCGAGUCCCGUACGGAACG            ≤ 0.5
 1  GUUCCGUUGGUGUAUUGGUAACGCGUCUCCCUCCUAAAGAGAAGACUGCGGGUUCAAGUCCCGUACGGAACG            ≤ 0.5
 2  GUUCCGUUGGCGUCAUGGUAACGCGUCUCCCGCCUAAGGAGAAGACUGCGGGUUCGAAUCCCGUCCGGAACG            0.645
 3  GUUCCGUUGGCGUAAUGGUACCGCGUCUCCCUCCUUAGGAGAAGACUACGGGUUCGAGUCCCGUACGGAACG            ≤ 0.5
 4  GUUCCGUUAGCGUAAUGGUAACGCGUCUCCCUCCUAAGGAGAAGACUGCGAGUUCGAGUUCCGUACAGAACG            0.588
 5  GUUCCGUUGGUGUAAUGGUAACGCGUCUGCCUUCUAAGGAGAAGACUGCGGGUUCGAGUUCCGUUCGGUACG            ≤ 0.5
 6  GUUCCGUUGGCGUAAUGGUAACGCGUCUCCCUCCUAAGGAGACCACUGCGGGUUGGAGUCCUGUAUGGAACG            ≤ 0.5
 7  GUUACGUUGGCGUAAUGGUAACACGUCUCCCUCCUAAGGCGAAGACUGCGGGUUCGAGUCCCGUACGGAACG            ≤ 0.5
 8  GUUCCGUUGGCGUAAUGGUAGCGCGUCUCCCUCCUAAGGAGAAGAAUGCGGGUUCGAGUCCCGUACGGAACG             1.01
 9  GUUCCGUAGGCGUAAUGGUAACGAGUCUCCCUCCUAAGGAGAAGACUGCGGGUUCGAGUCCCGUACGGAUCG            ≤ 0.5
10  GUUCCGUUGGCGUAAUGGUGACGCGUCUCUCUCCUAAGGAGAAGAAUGCGGGUUCGAGUCCCUUACGGAACG            ≤ 0.5
